Measured values drawn from PubChem BioAssay for this set.

# assay summary: viability loss with induced miR-34 in A549 – imaging, A549 dox-inducible miR-34, nuclei and caspase counts, primary screen (AID 1347080); further: test concentration not given here
# assay context: A549 miR-34 inducible, Hoechst nuclei count, 48 h; measured here: relative caspase fold change +Dox/-Dox
measured property: fold change
Format: numeric value only, no unit, no commentary.

# get_value(readout='fold change', item= COc1ccc(CC2c3cc(OC)c(OC)cc3CC[N@+]2(C)CCC(=O)OCCCCCOC(=O)CC[N@@+]2(C)CCc3cc(OC)c(OC)cc3C2Cc2ccc(OC)c(OC)c2)cc1OC (some centres undefined) )
1.36

# get_value(readout='fold change', item= `O=c1[nH]c2cc(Cl)ccc2c(O)c1-c1ccc(Oc2ccccc2)cc1` )
0.974

# get_value(readout='fold change', item= CC(C)(C)NC(=O)C1CN(Cc2cccnc2)CCN1CC(O)CC(Cc1ccccc1)C(=O)NC1c2ccccc2CC1O (centres undefined) )
1.5

# get_value(readout='fold change', item= `COc1cc(C=Cc2ccc(O)cc2)cc(OC)c1` )
1.26

# get_value(readout='fold change', item= COc1cc(N(C)CC2COc3ccccc3O2)nc(N)n1 (centres undefined) )
2.02

# get_value(readout='fold change', item= CCc1cc2c(cc1CC)CC(NCC(O)c1ccc(O)c3[nH]c(=O)ccc13)C2 (centres undefined) )
0.491

# get_value(readout='fold change', item= `O=c1[nH]c(=S)[nH]c(-c2ccccc2)c1Cc1c(O)ccc2ccccc12` )
1.58

# get_value(readout='fold change', item= COCC1=C(C(=O)OC(C)OC(=O)OC(C)C)N2C(=O)C(NC(=O)C(=NOC)c3csc(N)n3)C2SC1 (centres undefined) )
1.68

# get_value(readout='fold change', item= CC(=O)O[C@@]1(C(C)=O)CC[C@H]2[C@@H]3C=C(Cl)C4=CC(=O)C5CC5[C@]4(C)[C@@H]3CC[C@@]21C (some centres undefined) )
0.713

---

# assay summary: galactose survival enhancers in mitochondrial complex I cybrids – cell-based, galactose medium, ATP luminescence, primary screen (AID 1645843);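 further: positive z means more ATP and so rescue of galactose-driven cybrid death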
# assay context: complex I mutant cybrid cells, 72 h, stronger effect = higher value
measured property: z-score
Format: numeric value only, no unit, no commentary.

# get_value(readout='z-score', item= `Cc1nc(CCNC(=O)Nc2nnc(-c3cccs3)s2)sc1C` )
0.645

# get_value(readout='z-score', item= `COc1ccc(CN2C[C@H](C(=O)Nc3ccc4c(c3)CCC4)C[C@H](C(=O)N3CCCCC3)C2)cc1OC` )
-1.66

# get_value(readout='z-score', item= `CC(C)CNC(=O)[C@@H]1C[C@H](CN2CCOCC2)CN(Cc2ccc(O)cc2)C1` )
-0.31

# get_value(readout='z-score', item= `O=C(C1CCCCCC1)N1CCC(Cn2cc(CCCO)nn2)CC1` )
-0.325

# get_value(readout='z-score', item= COc1cc(C(O)CO)ccc1O (stereo not given) )
0.42

# get_value(readout='z-score', item= CC(C)(C)NC(=O)C1CN(Cc2cccnc2)CCN1CC(O)CC(Cc1ccccc1)C(=O)NC1c2ccccc2CC1O (stereo not given) )
1.61

# get_value(readout='z-score', item= COC(=O)c1c(NC(C)=O)c2cc(NCc3sccc3C)cnc2n1CC1CCCO1 (stereo not given) )
-0.82

# get_value(readout='z-score', item= `CCn1ccnc1CN(C)Cc1ccc(-c2nc(C(F)(F)F)c(C)c(=O)[nH]2)cc1` )
0.66

# get_value(readout='z-score', item= `Cc1cc(NC(=O)CCC2CC2)n(C(C)C)n1` )
-0.44

# get_value(readout='z-score', item= `Cn1nc(C(C)(C)C)cc1NC(=O)Cn1cc(-c2ccccc2N)cn1` )
-0.46

# get_value(readout='z-score', item= `Cn1nc(NC(=O)Cn2cc(-c3nccc4occc34)cn2)c2ccccc21` )
-0.345

# get_value(readout='z-score', item= `O=C(Nc1nncs1)NC1Cc2ccccc2C1` )
-0.6

# get_value(readout='z-score', item= CSc1nc(N)c2ncn([C@@H]3O[C@H](COP(=O)(O)OP(=O)(O)O)[C@H](O)C3O)c2n1 (stereo not given in full) )
0.32

# get_value(readout='z-score', item= CC(CCC(=O)O)C1CCC2C3C(=O)CC4CC(=O)CC[C@]4(C)C3CC(=O)[C@]12C (stereo not given in full) )
0.29

# get_value(readout='z-score', item= CC1=C(CC(=O)O)c2cc(F)ccc2/C1=C/c1ccc(S(C)=O)cc1 (stereo not given) )
0.615

# get_value(readout='z-score', item= `Cc1nsc(NC(=O)NCc2ccccc2OC(F)(F)F)n1` )
0.2

# get_value(readout='z-score', item= `CCn1ncc(NC(=O)Cn2nc(C)c(-c3cccc(C(C)=O)c3)c2C)n1` )
-0.465

# get_value(readout='z-score', item= CC[C@]1(O)CC2CN(CCc3c([nH]c4ccccc34)[C@@](C(=O)OC)(c3cc4c(cc3OC)N(C=O)C3[C@@](O)(C(=O)OC)C(OC(C)=O)[C@]5(CC)C=CCN6CC[C@]43C65)C2)C1 (stereo not given in full) )
-1.05

# get_value(readout='z-score', item= c1ccc2c(c1)OCC(CNc1ncnc3nc[nH]c13)O2 (stereo not given) )
-0.485

# get_value(readout='z-score', item= CCCc1cn(CC2CCCN(C(=O)c3nc4ncccn4n3)C2)nn1 (stereo not given) )
-0.51
